test: Human HepG2 cell viability assay in 384 well format; type: toxicity, cell-based; parameters: dose 125 nL, time 70.5 hour; concentration not given beside the values; details: HepG2 cells, read-out: Inhibition
Provide the reported cytotoxicity at 70.5 h of each item.
Report the value in % with no unit label.

Item under review: Cc1[nH]nc(CCC(=O)N2CCOC(CCc3ccccc3)C2)c1C (configuration not stated) . Reported cytotoxicity at 70.5 h? -0.521

What about COc1ccnc(NC(=O)c2ccsc2)c1 ? -10.1

Same lookup for NC(=O)c1ccc2c(c1)nc1n2CCN(Cc2ccco2)C1 , please. -8.52

And OCCN1CCN(Cc2coc(-c3ccccc3)n2)CC1 ? -4.94

Let us now turn to CC(=O)Nc1nc(C(=O)N2CCCC2c2noc(C(C)C)n2)cs1 (configuration not stated) 1.7

Okay, and CN(CC1(O)CCCCC1)C1CCCN(Cc2noc(C3CC3)n2)C1 (configuration not stated) ? 16.9

Also need CCc1cc(N2CCCC(CC)(C(=O)O)C2)nc(N2CCOCC2)n1 (configuration not stated) , thanks. 13.3

Try the compound O=C1CCN(CCS(=O)(=O)c2ccc(Cl)cc2)CCN1 -11.7

# repeat for Cn1cnc(S(=O)(=O)NCC2(O)CCOc3ccccc32)c1 (configuration not stated) -4.65

Also need Cc1[nH]c2ccc(CNc3cc(C(N)=O)ccn3)cc2c1C , thanks. -0.16

Moving on to the next compound: O=C(c1cccnc1)C1CCCN(c2nnc(C3CC3)o2)C1 (configuration not stated) -1.21

Next compound: COc1ccc(-c2noc(CNC(C)Cn3cccn3)n2)c(OC)c1 (configuration not stated) 22.3

Taken from ChEMBL document CHEMBL3507680.
